Tested on: UACC-257 melanoma
assay-notes: NCI tumour cell line growth inhibition, 48 h
# TGI annotations
measured-attribute: TGI

[
  {
    "compound": "O=C1OC[C@@H]2Cc3cc4c(cc3[C@H](c3ccc5c(c3)OCO5)[C@@H]12)OCO4",
    "result": "> 25 µM"
  },
  {
    "compound": "COc1ccc(C2CC(c3cccc(Nc4ccncc4)c3)=NN2c2cc(Cl)cc(Cl)c2)cc1 (stereo not given)",
    "result": "4.92 µM"
  },
  {
    "compound": "CCN(CC)CCOc1ccc(/C=C(\\C#N)c2ccc(OCCN(CC)CC)cc2)cc1",
    "result": "31.3 µM"
  },
  {
    "compound": "COc1ccc2c(c1)C(C)Cc1c(Cl)ncnc1N2C (stereo not given)",
    "result": "23.3 µM"
  },
  {
    "compound": "O=C1c2ccccc2C(=O)C1(Cl)C1(S(=O)(=O)O)c2ccccc2-c2ccccc21",
    "result": "> 100 µM"
  },
  {
    "compound": "C[C@]12C=CC(=O)C=C1CC[C@H]1[C@@H]3C[C@@H](O)[C@](O)(C(=O)CO)[C@@]3(C)C[C@H](O)[C@@]12F",
    "result": "> 100 µM"
  },
  {
    "compound": "C[C@@H]1C[C@H]2[C@@H]3CCC4=CC(=O)C=C[C@]4(C)[C@@]3(Cl)[C@@H](Cl)C[C@]2(C)[C@@]1(O)C(=O)COP(=O)(O)O",
    "result": "> 100 µM"
  },
  {
    "compound": "CCc1nc(N)nc(N)c1-c1ccc(Cl)c(Cl)c1",
    "result": "> 100 µM"
  },
  {
    "compound": "CCOC(=O)Oc1c(OC)cc(C(=O)NC2CCc3cc(OC)c(OC)c(OC)c3-c3ccc(SC)c(=O)cc32)cc1OC (stereo not given)",
    "result": "> 70 µM"
  },
  {
    "compound": "C[C@]12CC[C@H](O)CC1=CC[C@@H]1[C@@H]2CC[C@]2(C)C(=O)[C@@H](N3CCOCC3)C[C@@H]12",
    "result": "> 100 µM"
  },
  {
    "compound": "O=S1(=O)OCCOS(=O)(=O)C1F",
    "result": "> 100 µM"
  },
  {
    "compound": "Cc1nc2ccccc2c(=O)n1NC(=O)c1ccc(CS)cc1",
    "result": "> 100 µM"
  },
  {
    "compound": "CCC1(CC)SCc2nc3ccccc3n21",
    "result": "71.9 µM"
  },
  {
    "compound": "COc1cc(/C=C2\\CCC(C)C3C2=NN(C(C)=O)C3c2cc(OC)c(OC)c(OC)c2)cc(OC)c1OC (stereo not given)",
    "result": "> 100 µM"
  },
  {
    "compound": "COc1ccc(N=C2SC(=N/N=c3\\sc4ccccc4n3C)SC2=Nc2ccc(OC)cc2)cc1",
    "result": "> 100 µM"
  },
  {
    "compound": "Cc1ccc(/C=N/n2c(=O)[nH]c3ccccc3c2=O)cc1",
    "result": "> 100 µM"
  },
  {
    "compound": "COc1cc(-c2cc(=O)c3c(OC)c(OC)c(OC)c(OC)c3o2)c(OC)c(OC)c1OC",
    "result": "> 100 µM"
  },
  {
    "compound": "CC(C)(Cc1ccccc1)NC1=NCCO1",
    "result": "> 100 µM"
  },
  {
    "compound": "CC(=O)Nc1cc(C(=O)Nc2cc(C(=O)N3CC(CCl)c4c3cc(N)c3ccccc43)nn2C)nn1C (stereo not given)",
    "result": "2.09 µM"
  },
  {
    "compound": "O=C(OC(=O)n1ccc2ccccc21)n1ccc2ccccc21",
    "result": "> 100 µM"
  },
  {
    "compound": "CCC(=O)NC(Nc1cccc(F)c1C)(C(F)(F)F)C(F)(F)F",
    "result": "> 100 µM"
  },
  {
    "compound": "C=C(F)C(=O)N1CCN(c2nc(OC[C@@H]3CCCN3C)nc3c2CCN(c2cccc4cccc(Cl)c24)C3)C[C@@H]1CC#N",
    "result": "3.1 µM"
  },
  {
    "compound": "CS(=O)(=O)N/N=C/CN1C(=O)c2ccccc2C1=O",
    "result": "> 100 µM"
  },
  {
    "compound": "Cc1nc(N)sc1-c1ccnc(Nc2ccc(N3CCOCC3)cc2)n1",
    "result": "> 100 µM"
  },
  {
    "compound": "CCN(CC)c1c(N(CC)CC)c(=O)c1=O",
    "result": "20.5 µM"
  }
]
